Test system: Radical scavenging activity
Test: Antioxidant activity assessed as DPPH free radical scavenging activity at 20 ug/ml by spectrophotometry
Format: functional
PARAMETER_MEASURED: Activity (%)
Only the number, expressed in %, is required.

Worked cases, answers included:
O=c1[nH]c2c(c(=O)[nH]1)C(c1ccccc1Cl)Nc1cc3c(cc1-2)NC(c1ccccc1Cl)c1c-3[nH]c(=O)[nH]c1=O (stereo not drawn) | 84
O=c1[nH]c2c(c(=O)[nH]1)C(c1ccccc1)Nc1cc3c(cc1-2)NC(c1ccccc1)c1c-3[nH]c(=O)[nH]c1=O (stereo not drawn) | 82

Entry O=c1[nH]c(=S)[nH]c2c1C(c1ccc(Cl)cc1)Nc1cc3c(cc1-2)NC(c1ccc(Cl)cc1)c1c-3[nH]c(=S)[nH]c1=O (stereo not drawn) ; Activity = 84.4
